Target: Fc WT (Fc-only variant, human IgG1 core hinge-CH2-CH3, wild type) (human)
Assay: SPR; Biacore T200, C1 chip, 25 °C, HBS-EP+ (10 mM HEPES, 150 mM NaCl, 3 mM EDTA, 0.05% P20, pH 7.4); antibody Fc variants captured via anti-human Fab-kappa nanobody (about 60 RU), Fc only variants amine-coupled (60-80 RU), cytokine-Fc fusions captured via anti-PGLALA F(ab')2 (35-40 RU); PRYSPRY domain injected in five two-fold dilutions from 500, 1000 or 2000 nM; global fit, Langmuir 1:1, affinity mode
Measured Attribute: Kd
Report the figure along with its unit, number first.

Prompt: Report measured Kd; entry is TRIM21 PRYSPRY domain (from UniProt P19474-1 277-475) (domain or fragment)
Response: 65.1 nM
